B1: ZNF649 (parent)
chain: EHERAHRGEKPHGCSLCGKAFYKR

Variants of: B1
test protocol: protein stability index of a GFP-peptide fusion (GPS, HEK-293T) (PSI 1-6); higher = more stable;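 further: lentivirally expressed fusions sorted by FACS into six bins by GFP to DsRed ratio, PSI derived from sequencing read proportions per bin multiplied by bin number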
assay context: c terminus: a fixed tail appended
Collected protein stability index values appear next to each entry.

variant notation	protein stability index
C14R	3.73
G18D	2.45
R4W	1.88
G18V	2
E1V	2.77
A5S	1.09
H6G	1.21
Y22K	3.13
C17N	4.44
S15G	1.56
L16K	2.79
G18L	2.42
K23S	2.03
R7K	2.34
H12S	1.32
R4T	1.95
G8Y	3.18
H12Q	2.18
C14D	4.54
R4I	1.91
G18H	2.15
G18C	1.59
E1R	1.7
K23I	1.92
K10S	1.66
A20K	2.74
R4H	2.05
E9Y	2.19
R4P	2.6
K10N	1.19
E9M	2.08
A5E	1.83
A20T	2.17
G13P	1.88
E3L	1.92
F21M	2.37
G8M	1.8
G8N	2.12
G8P	2.78
S15L	2.27
E9R	3.66
A5R	2.76
E3F	2.67
F21Y	2.95
R7F	1.32
K10W	1.67
